study-system: T1, transforming growth factor-beta 2 (TGF-β2) (UniProt P61812 303-414)
T1 construct: also called TGFb2; TGFB2
T1 sequence (looked up): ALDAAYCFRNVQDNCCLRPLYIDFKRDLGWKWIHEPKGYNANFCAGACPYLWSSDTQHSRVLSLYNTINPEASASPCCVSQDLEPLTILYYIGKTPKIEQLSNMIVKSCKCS
test-details: ELISA, peptide on streptavidin plate, ligand 100 ng/ml
Ends that are not written are not given here.
assay-endpoint: ELISA OD450 (OD450)
Answer with a number only, understood to be in OD450.

Some solved cases for reference:
QNPPAQPAPNAWQVIKGVLFG (also: biotinylated, site not given here) [CLPTM1 peptide fragment of SEQ ID NO: 10] | 0.013
LMNLHVYISEHEHFTDFNATG (also: biotinylated, site not given here) [CLPTM1 peptide fragment of SEQ ID NO: 13] | 0.005
SDGCYEHFAELDIPQSVQQNG (also: biotinylated, site not given here) [CLPTM1 peptide fragment of SEQ ID NO: 15] | -0.003
NDYWNLQKDYYPINESLASLG (also: biotinylated, site not given here) [CLPTM1 peptide fragment of SEQ ID NO: 22] | 0.005
PLDQYVKFDAVSGDYYPIIYFNDYWNLQKDYYPINESLA (also: biotinylated, site not given here, also called peptide 32; GT8) [CLPTM1 peptide fragment of SEQ ID NO: 39] | 0.91

Returns the measured ELISA OD450 for the input binder. Input: STKSPWNFLGDELYEQSDEEG (also: biotinylated, site not given here) [CLPTM1 peptide fragment of SEQ ID NO: 24]
0.007

One more binder: QAGPGGAPRVASRNLFPKDTG (also: biotinylated, site not given here) [CLPTM1 peptide fragment of SEQ ID NO: 12]
-0.006

One more binder: NAWQVIKGVLFRIFIIWAISSWFRRGPAPQDQAGPGGA (also: biotinylated, site not given here, also called peptide 28; GT4) [CLPTM1 peptide fragment of SEQ ID NO: 35]
0.031

One more binder: SGDYYPIIYFNDYWNLQKDYYPINESLA (also: biotinylated, site not given here, also called peptide 33; GT9) [CLPTM1 peptide fragment of SEQ ID NO: 40]
2.09

One more binder: SGDYYPIIYFNDYWNLQKDYYPINESLASLPLRVSFCPLS (also: biotinylated, site not given here, also called peptide 25; GT1) [CLPTM1 peptide fragment of SEQ ID NO: 32]
1.63

One more binder: PLRVSFCPLSLWRWQLYAAQG (also: biotinylated, site not given here) [CLPTM1 peptide fragment of SEQ ID NO: 23]
0.066
